# Target Under Test: human EAAT1 (Homo sapiens)
# Construct: expressed in transfected cells; host or cells: COS-7 cells, pCMV5 construct, DEAE-dextran transient transfection
# Sequence (P43003 whole entry): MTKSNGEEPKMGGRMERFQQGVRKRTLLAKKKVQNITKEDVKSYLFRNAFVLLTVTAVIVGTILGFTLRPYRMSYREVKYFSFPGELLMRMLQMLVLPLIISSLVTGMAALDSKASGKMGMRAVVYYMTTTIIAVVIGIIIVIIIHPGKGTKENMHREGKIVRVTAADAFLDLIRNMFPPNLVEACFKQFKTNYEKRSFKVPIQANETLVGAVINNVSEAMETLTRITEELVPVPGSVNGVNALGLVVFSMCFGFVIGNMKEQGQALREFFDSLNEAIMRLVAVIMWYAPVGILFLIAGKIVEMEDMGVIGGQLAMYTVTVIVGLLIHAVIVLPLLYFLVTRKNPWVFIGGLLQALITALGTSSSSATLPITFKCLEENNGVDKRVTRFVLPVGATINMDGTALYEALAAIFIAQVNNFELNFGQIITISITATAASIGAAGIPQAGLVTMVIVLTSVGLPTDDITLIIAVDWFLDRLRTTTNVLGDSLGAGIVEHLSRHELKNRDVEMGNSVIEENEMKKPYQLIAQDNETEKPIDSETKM
# Assay: inhibition of [3H]-L-glutamate uptake in COS-7 cells expressing EAAT1
# Type: cell-based
Measure: Ki (µM)

Compound	Measure	Unit Abbreviation	Limit Qualifier	Numeric Value
CC(C)[C@H]1CN[C@H](C(=O)O)[C@H]1CC(=O)O [DHK, dihydrokainate]	Ki	µM	>	1000
N[C@@H](COS(=O)(=O)O)C(=O)O [SOS, L-serine-O-sulfate]	Ki	µM	=	107

----------
# Target Under Test: human EAAT2 (Homo sapiens)
# Construct: expressed in transfected cells; host or cells: COS-7 cells, pCMV5 construct, DEAE-dextran transient transfection
# Sequence (P43004 whole entry): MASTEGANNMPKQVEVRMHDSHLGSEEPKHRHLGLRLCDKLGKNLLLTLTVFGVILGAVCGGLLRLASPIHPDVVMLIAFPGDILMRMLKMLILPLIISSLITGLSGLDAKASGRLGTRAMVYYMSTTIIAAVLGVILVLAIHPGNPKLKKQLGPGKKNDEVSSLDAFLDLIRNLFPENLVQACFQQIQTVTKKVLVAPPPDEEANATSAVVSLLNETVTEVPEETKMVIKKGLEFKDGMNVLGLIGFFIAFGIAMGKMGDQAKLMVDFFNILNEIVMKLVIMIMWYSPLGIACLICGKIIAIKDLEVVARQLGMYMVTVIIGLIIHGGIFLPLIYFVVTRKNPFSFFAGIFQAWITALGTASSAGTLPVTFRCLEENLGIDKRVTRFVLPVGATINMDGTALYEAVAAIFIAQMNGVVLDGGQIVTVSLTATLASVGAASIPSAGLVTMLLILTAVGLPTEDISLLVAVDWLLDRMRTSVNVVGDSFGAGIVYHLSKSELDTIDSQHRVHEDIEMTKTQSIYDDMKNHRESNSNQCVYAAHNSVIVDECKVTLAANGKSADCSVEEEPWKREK
# Assay: inhibition of [3H]-L-glutamate uptake in COS-7 cells expressing EAAT2
# Format: cell-based
# Experimental Parameters: uptake of 1 μM [3H]-L-glutamate; [S] << Km, Ki does not differ significantly from measured IC50; read-out: Ki, glutamate uptake inhibition constant, EAAT2

Compound	Ki [µM]
N[C@@H](CS(=O)(=O)O)C(=O)O [L-cysteate]	10
NC(CC(=O)O)CC(=O)O [β-glutamate]	156
C=C(C)[C@H]1CN[C@H](C(=O)O)[C@H]1CC(=O)O [KAI, kainate]	59
